- assaySystem: T1, huMICA*008 alpha 3-his (human)
- T1 construct: whole construct entry: GS, alpha 3 domain (Thr204-Ser297), GNS, His8; also the construct of the FPOP experiment; also called MICA008.His; MICA*008 alpha3 construct
- T1 chain: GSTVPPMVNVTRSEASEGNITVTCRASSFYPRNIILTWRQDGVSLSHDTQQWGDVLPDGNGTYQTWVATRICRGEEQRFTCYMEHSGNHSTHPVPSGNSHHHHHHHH
- runDescription: SPR, Biacore 8K, antibody on Protein A chip
measure: Kd (nM)
Use nM as the unit, but write only the number.

Consider the worked cases shown below.
[
  {
    "binder": "13A9v6 (antibody, IgG1, V domains shown, humanized variant of 13A9) VH: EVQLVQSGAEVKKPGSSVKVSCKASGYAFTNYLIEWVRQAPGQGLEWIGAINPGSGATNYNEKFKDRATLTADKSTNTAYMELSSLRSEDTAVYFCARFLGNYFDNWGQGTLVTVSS VL: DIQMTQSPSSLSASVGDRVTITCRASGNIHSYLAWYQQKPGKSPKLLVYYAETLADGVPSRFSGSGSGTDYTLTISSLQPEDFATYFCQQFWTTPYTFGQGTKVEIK",
    "recordedValue": 2.8
  },
  {
    "binder": "15F11v6 (antibody, IgG1, V domains shown, humanized variant of 15F11) VH: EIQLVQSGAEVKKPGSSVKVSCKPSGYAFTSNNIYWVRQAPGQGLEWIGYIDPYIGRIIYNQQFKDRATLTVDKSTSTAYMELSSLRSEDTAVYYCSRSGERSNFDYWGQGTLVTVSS VL: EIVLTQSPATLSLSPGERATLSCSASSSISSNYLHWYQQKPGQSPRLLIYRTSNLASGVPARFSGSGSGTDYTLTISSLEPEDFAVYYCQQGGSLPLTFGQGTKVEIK",
    "recordedValue": 2.94
  },
  {
    "binder": "1D5v11 (antibody, IgG1, V domains shown, humanized variant of 1D5) VH: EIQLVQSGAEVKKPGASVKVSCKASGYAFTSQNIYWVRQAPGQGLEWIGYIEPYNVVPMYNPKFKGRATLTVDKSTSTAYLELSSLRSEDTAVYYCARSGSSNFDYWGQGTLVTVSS VL: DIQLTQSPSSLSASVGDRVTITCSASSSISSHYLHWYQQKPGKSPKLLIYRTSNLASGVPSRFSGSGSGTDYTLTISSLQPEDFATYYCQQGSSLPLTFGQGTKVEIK",
    "recordedValue": 0.78
  },
  {
    "binder": "1D5v29 (antibody, IgG1, V domains shown, humanized variant of 1D5) VH: EIQLVQSGAEVKKPGASVKVSCKASGYAFTSQNIYWVRQAPGQGLEWIGYIEPYNVVPVYNPKFKGRATLTVDKSTSTAYLELSSLRSEDTAVYYCARSGSSNFDYWGQGTLVTVSS VL: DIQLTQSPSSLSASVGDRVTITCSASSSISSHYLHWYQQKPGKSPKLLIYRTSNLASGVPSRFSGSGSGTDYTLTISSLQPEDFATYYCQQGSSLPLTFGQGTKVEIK",
    "recordedValue": 1.65
  }
]

Turning now to a further binder:
Query: Could you tell me which Kd is on file for 13A9v4 (antibody, IgG1, V domains shown, humanized variant of 13A9) VH: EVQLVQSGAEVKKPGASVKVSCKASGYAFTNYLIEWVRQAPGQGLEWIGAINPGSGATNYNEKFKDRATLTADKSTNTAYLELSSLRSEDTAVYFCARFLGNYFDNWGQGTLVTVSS VL: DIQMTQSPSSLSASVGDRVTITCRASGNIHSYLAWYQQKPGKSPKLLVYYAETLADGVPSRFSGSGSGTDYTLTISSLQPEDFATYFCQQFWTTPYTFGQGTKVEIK ?
Reply: 2.72
